# Study system: T1, Human SEZ6L2 (Homo sapiens, UniProt Q6UXD5)
# T1 construct: a protein composed of the extracellular portion of the human SEZ6L2 protein; His6 (C); made in house; host or cells: CHO (ExpiCHO)
# T1 sequence (Q6UXD5 28-844 limits assumed): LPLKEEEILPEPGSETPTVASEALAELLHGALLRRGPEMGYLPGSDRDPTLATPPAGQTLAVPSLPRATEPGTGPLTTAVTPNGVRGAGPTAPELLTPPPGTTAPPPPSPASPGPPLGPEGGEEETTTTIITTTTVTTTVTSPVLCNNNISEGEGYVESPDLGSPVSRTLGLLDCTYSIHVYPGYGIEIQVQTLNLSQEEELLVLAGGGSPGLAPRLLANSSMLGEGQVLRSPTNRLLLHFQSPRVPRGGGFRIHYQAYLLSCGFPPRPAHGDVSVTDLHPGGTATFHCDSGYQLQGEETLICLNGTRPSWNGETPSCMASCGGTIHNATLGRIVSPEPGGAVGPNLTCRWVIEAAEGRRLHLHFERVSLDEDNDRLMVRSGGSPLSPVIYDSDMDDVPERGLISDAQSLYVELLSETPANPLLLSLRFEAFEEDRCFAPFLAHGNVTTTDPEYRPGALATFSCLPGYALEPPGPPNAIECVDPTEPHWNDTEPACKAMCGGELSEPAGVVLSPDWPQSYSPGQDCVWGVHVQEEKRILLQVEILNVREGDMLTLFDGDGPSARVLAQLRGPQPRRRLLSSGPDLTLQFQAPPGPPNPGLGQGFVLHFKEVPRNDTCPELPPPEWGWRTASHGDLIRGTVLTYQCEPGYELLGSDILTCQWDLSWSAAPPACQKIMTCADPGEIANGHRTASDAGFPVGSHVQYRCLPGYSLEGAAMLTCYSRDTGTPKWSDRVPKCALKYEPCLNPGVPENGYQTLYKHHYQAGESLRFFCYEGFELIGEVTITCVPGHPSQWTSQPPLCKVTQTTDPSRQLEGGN
# Assay overview: ForteBio Octet binding kinetics, Protein A biosensors
# Experimental: Affinity: The affinity of antibodies to various recombinant SEZ6L2 molecules was determined on an Octet Red (Pall, ForteBio) instrument. […] Table 10, below, indicates the KD, Kon, and Koff values for human antibodies 1A1, 3A1, 3A2, and 3A3 and humanized antibodies 16H8, 3E2, 20C4, and 2E4, for both human SEZ6L2 and cynomolgus monkey SEZL2, as determined by ForteBio Data Analysis 9.0 Kinetics software. […]
Parameter measured: K(off)
Enter the number alone.

Molecule: 20C4: humanized anti-SEZ6L2 antibody, VH SEQ ID NO: 17, VL SEQ ID NO: 21 (antibody, V domains shown) VH: EVQLVESGGGLVQPGGSLRLSCAASGFTFTDYYMSWVRQAPGKGLEWVALIRNKANGYTTEYSASVKGRFTISRDNSKNSLYLQMNSLRAEDTAVYYCARNGLYGLFAYWGQGTLVTVSSA VL: DIVMTQTPLSIPVTPGEPASISCRSSTSLLESSGKHRLYWYLQKPGQSPQLLIYYMSNLASGVPDRFSGSGSGTDFTLKISRVEAEDFGVYYCMQSLEYPLTFGAGTKVEIKR
K(off): 2.20E−04
//
Molecule: 3E2: humanized anti-SEZ6L2 antibody, VH SEQ ID NO: 9, VL SEQ ID NO: 13 (antibody, V domains shown) VH: EVQLVESGGGLVQPGGSLKLSCAASGFSFNTITMNWVRQASGKGLEWVGRIRSKSNNYATYYADAVKDRFTISRDDSKNTAYLQMNSLKTEDTAVYYCVRGIFSGYVYAMDYWGQGTLVTVSSA VL: DVVMTQSPLSLPVTVGQPASISCRSSQSIVHSNGNTYLEWFQQRPGQSPRVLIYKVSNRFSGVPDRFSGSGSGTDFTLKISRVEAEDVGVYYCFQGSHVPYTFGGGTKLEIKR
K(off): 3.19E−03

Pending molecule:
Fill in: K(off) of 16H8: humanized anti-SEZ6L2 antibody, VH SEQ ID NO: 1, VL SEQ ID NO: 5 (antibody, V domains shown) VH: QIQLVQPGAEVKKPGASVKVSCKASGYTFTSYWMYWVRQAPGQGLEWMGAIYPRDSDTSYNQKFKGRVTMTRVTSTSTVYMELSSLRSEDTAVYYCTRGDYYYGSSYYAMDYWGQGTTVTVSSA VL: DIVMTQSPLSLPVTPGEPASISCSSSKSLLHSNGITYLYWYLQKPGQSPQLLIYRMSNLASGVPDRFSGSGSGTDFTLKISRVEAEDVGVYYCAQMLERPYTFGQGTKVEIKR is ___ 2.20E−04
